Reference source for all entries: ChEMBL document CHEMBL4680165

target: UDP-glucuronosyltransferases (UGTs) (Homo sapiens, UniProt O60656+O75310+O75795+P06133+P0DTE4+P0DTE5+P16662+P19224+P22309+P22310+P35503+P35504+P36537+P54855+Q6UWM9+Q9BY64+Q9HAW7+Q9HAW8+Q9HAW9); experiment: Metabolic stability in human liver microsomes assessed as UGT-mediated N-glucuronidation by measuring intrinsic clearance at 3 uM measured up to 45 mins by LC-MS/MS analysis; format: ADME; conditions: liver microsomes, read-out: CLH
MEASURED ENDPOINT: microsomal CLint at 3 µM (µL/min/mg)

- COc1ccc([C@H]2[C@H](O)C(=O)N2c2cc(OC)c(OC)c(OC)c2)cc1F: 14.2
